Molecular target: cathepsin B (Homo sapiens, UniProt P07858)
Construct: made in house
Test: Kinetic parameters of ACC substrates with cathepsin B
Type: biochemical
Conditions: Fig. 5B; pH 5.5, 37 °C; cathepsin B 4–15 nM; triplicate, SD below 15%
Non-standard residues stand in square brackets, D forms with d. *: point of attachment. Phe(F5) = N[C@@H](Cc1c(F)c(F)c(F)c(F)c1F)C(=O)O; ACC = NC(=O)Cc1cc(=O)oc2cc(N*)ccc12
endpoint.name: kcat/KM Cath-B (M⁻¹ s⁻¹)
Please respond with the number in M⁻¹ s⁻¹ and leave the unit unwritten.

[
  {
    "substance": "Ac-R[dV][Phe(F5)]R-{ACC} (SMILES CC(=O)N[C@@H](CCCNC(=N)N)C(=O)N[C@@H](C(=O)N[C@@H](Cc1c(F)c(F)c(F)c(F)c1F)C(=O)N[C@@H](CCCNC(=N)N)C(=O)Nc1ccc2c(CC(N)=O)cc(=O)oc2c1)C(C)C)",
    "target.under.test": "cathepsin B (Homo sapiens, UniProt P07858)",
    "unit.text": "M⁻¹ s⁻¹",
    "kcat/KM Cath-B": 101
  }
]

Enquiry: I would be grateful if you could share the reported kcat/KM Cath-B for Ac-H[dT][Phe(F5)]R-{ACC} (SMILES CC(=O)N[C@@H](Cc1c[nH]cn1)C(=O)N[C@@H](C(=O)N[C@@H](Cc1c(F)c(F)c(F)c(F)c1F)C(=O)N[C@@H](CCCNC(=N)N)C(=O)Nc1ccc2c(CC(N)=O)cc(=O)oc2c1)[C@H](C)O) .
Return: 94

The origin of these recorded values is paper PMC5896380.
